System: M14 melanoma
Experiment: NCI tumour cell line growth inhibition, 48 h
Measured Quantity: TGI (µM)
Provide only the numeric value, understood in µM.

{"columns": ["Compound", "TGI [µM]"],
 "data": [
  ["O=C(Nc1ccc(Cl)cc1F)c1cc(I)ccc1O", 5.57],
  ["Cc1cccc2c(N)c3cccc(C(=O)NCC[N+](C)(C)Cc4sccc4[N+](=O)[O-])c3nc12", 32.8]
]}

// moving on: another record for TGI
# get_value(readout='TGI', item= CN(C)c1ncnc2c1nnn2C1OC(CO)C(O)C1O (stereo not given) )
1.14

---

Tested on: HCT-116 colon
Test: NCI tumour cell line growth inhibition, 48 h
Measured Quantity: TGI

Solved entries:
{"columns": ["Compound", "TGI"],
 "data": [
  ["CCOC(=O)c1cc2c(nc1N)-c1ncccc1CC2", "> 100 µM"],
  ["COC(=O)C1=C(C(=O)OC)C23CC1C1C(C(=O)OC)=C(C(=O)OC)C12C1C=CC3C2C(=O)OC(=O)C21 (stereo unspecified)", "> 100 µM"],
  ["CC(C)(C#N)c1cc(F)cc(C(=O)Nc2cc(Nc3ncccc3-c3ncnc4nc[nH]c34)ccc2F)c1", "> 10 µM"],
  ["COc1cc2nccc(Oc3ccc(NC(=O)C4(C(=O)Nc5ccc(F)cc5)CC4)cc3)c2cc1Oc1ccc(N)cn1", "> 100 µM"],
  ["CSC1=NC(C(N)=O)C(N)N1C (stereo unspecified)", "> 100 µM"],
  ["COc1ccc(-c2nn(-c3cccc(NC(=O)c4ccc5c(c4)OCCO5)c3)cc2-c2ccncc2)cc1Cl", "14.5 µM"]
]}

Quick check: TGI of COc1ccc(OC)c(C23CCCC(C2)N(C)CC3)c1 (stereo unspecified) ?
41.3 µM

Can you handle `O=P1(c2ccccc2)c2ccccc2CCc2ccccc21` next?
> 100 µM

// query: `ClCCN1CCOC1=Nc1ccc2c(c1)CCCC2`
26.8 µM

For `O=c1cccccc1NCCCCCCNc1cccccc1=O` then?
> 100 µM

Can you handle `Cn1cc(C2=C(c3cccnc3)C(=O)NC2=O)c2ccccc21` next?
> 25 µM
